# Lookup of reported melting point keyed by entry
Readout Name: melting point

* CC(C)(CO)NS(=O)(=O)c1cnc(NC(=O)c2cnn3c(C(F)F)cc(-c4ccc(C(F)(F)F)cc4)nc23)s1 | 280 °C
* CC(=O)c1cnn(C)c1S(N)(=O)=O | 153 to 162 °C
* O=S(=O)(CCl)c1ccc(O)cc1 | 110 °C
* Cc1cccc(-c2nc3cccnn3c2-c2ccnc(NC(=O)c3ccccc3)c2)c1 | 178 to 180 °C
* CCc1cnc(CSc2cnc(N)s2)o1 | 119 to 120 °C
* CC(C(=O)O)c1ccc(OCCNC(=O)C2Cc3ccccc3N2S(=O)(=O)c2ccc(-c3cc(C(F)(F)F)ccc3Cl)cc2)cc1 (stereo unspecified) | 91 to 100 °C
* CC1(C)CN=C(c2cc3cc(F)cc(NS(=O)(=O)c4cccs4)c3[nH]2)S1 | 175 to 176 °C
* COc1ccc(-c2nccc(C)c2OC2SCC(O)C(O)C2O)cc1 (stereo unspecified) | 101 °C
* COC(=O)CCCCCCNC(=O)c1cn2c3c(cccc13)CCC2 | 66 to 67 °C
* O=C(O)c1ccc2c(c1)S(=O)c1ccccc1C2=O (stereo unspecified) | 295 to 296 °C
* c1cc(-c2n[nH]c3c2Cc2ccc(CN4CCSCC4)cc2-3)cs1 | 193 to 195 °C
* CCOC(=O)Cc1ccc2c(c1)sc1c(Cl)cccc12 | 62 to 64 °C
* CC(=NOCCOc1ccc(CC2SC(=O)NC2=O)cc1)c1ccc(O)cc1 (stereo unspecified) | 157 to 159 °C
* O=[N+]([O-])c1cc(C(F)(F)F)c(Cl)c([N+](=O)[O-])c1Nc1cc(C(F)(F)F)cc(C(F)(F)F)n1 | 169 to 170 °C
* Cc1cc(Cl)cc(C(=O)NC(C)C2CC2)c1NC(=O)c1cc(Br)nn1-c1ncccc1Cl (stereo unspecified) | 182 to 183 °C
* CCOC(=O)N1CCc2cc(OC)c(OC)cc2C(Oc2ccc(C(F)(F)F)cc2)C1 (stereo unspecified) | 130 to 131 °C
* CN(C)Cc1nnc2n1-c1ccc(C(F)(F)F)cc1C(c1ccccc1)=[N+]([O-])C2 | 188 to 190 °C
* CC1(C)CC(=O)N(CCCCN2CCN(c3nsc4ccccc34)CC2)C(=O)C1 | 146 to 147 °C
* CC(=Cc1ccc(C(=O)O)cc1)c1ccc2c(c1)N(C)CCC2(C)C | 194 to 196 °C
* Cc1c(-c2ccccc2)oc2c(S)cccc2c1=O | 115 to 118 °C
* Nc1sc(-c2ccncc2)c(CN(C2CCCCC2)C2CCCCC2)c1C(=O)c1ccc(Cl)cc1 | 214 to 216 °C
